# measurement target: Cannabinoid receptor 1 (Homo sapiens)
# Sequence (P21554 whole entry): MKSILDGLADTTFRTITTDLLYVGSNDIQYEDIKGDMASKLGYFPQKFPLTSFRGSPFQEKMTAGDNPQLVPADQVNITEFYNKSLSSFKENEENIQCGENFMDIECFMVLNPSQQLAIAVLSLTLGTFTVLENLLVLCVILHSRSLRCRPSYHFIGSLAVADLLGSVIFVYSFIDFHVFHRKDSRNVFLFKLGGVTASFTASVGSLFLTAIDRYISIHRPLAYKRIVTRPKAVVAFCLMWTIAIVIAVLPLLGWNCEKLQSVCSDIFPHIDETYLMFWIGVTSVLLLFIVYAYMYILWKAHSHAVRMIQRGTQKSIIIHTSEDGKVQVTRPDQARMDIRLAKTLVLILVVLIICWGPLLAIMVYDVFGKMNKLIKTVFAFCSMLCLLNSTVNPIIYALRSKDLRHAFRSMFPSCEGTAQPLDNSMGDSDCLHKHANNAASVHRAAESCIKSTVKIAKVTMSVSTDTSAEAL
# assay notes: Displacement of [3H]CP-55,940 from human recombinant cannabinoid CB1 receptor expressed in CHO cells
# Format: cell-based
experimental readout: Ki

Please look up its Ki: CCn1c2ccccc2c2cc(NC(=O)CCc3nc(-c4ccc(F)cc4C#N)no3)ccc21
> 10 µM

###

# assay notes: Metabolic stability in mouse plasma assessed as compound remaining after 10 mins
# Assay type: ADME, cell-free
# recorded conditions: read-out: Stability
Reported remaining at 10 min by item:
Write down the numeric answer in % and omit the unit.

[[record]]
molecular_string = "CCCCOc1c(O[11CH3])ccc2cc(C(=O)NC3CCCCC3)c(=O)[nH]c12"
experimental_readout = "remaining at 10 min"
quantitative_result = 24


Next molecule, please.
Please look up its remaining at 10 min: CCCCOc1c(OCC[18F])ccc2cc(C(=O)NC3CCCCC3)c(=O)[nH]c12
41
